Sourced from paper PMC10341658

system-tested: FGFR-1 (Homo sapiens)
Sequence (P11362 22-822): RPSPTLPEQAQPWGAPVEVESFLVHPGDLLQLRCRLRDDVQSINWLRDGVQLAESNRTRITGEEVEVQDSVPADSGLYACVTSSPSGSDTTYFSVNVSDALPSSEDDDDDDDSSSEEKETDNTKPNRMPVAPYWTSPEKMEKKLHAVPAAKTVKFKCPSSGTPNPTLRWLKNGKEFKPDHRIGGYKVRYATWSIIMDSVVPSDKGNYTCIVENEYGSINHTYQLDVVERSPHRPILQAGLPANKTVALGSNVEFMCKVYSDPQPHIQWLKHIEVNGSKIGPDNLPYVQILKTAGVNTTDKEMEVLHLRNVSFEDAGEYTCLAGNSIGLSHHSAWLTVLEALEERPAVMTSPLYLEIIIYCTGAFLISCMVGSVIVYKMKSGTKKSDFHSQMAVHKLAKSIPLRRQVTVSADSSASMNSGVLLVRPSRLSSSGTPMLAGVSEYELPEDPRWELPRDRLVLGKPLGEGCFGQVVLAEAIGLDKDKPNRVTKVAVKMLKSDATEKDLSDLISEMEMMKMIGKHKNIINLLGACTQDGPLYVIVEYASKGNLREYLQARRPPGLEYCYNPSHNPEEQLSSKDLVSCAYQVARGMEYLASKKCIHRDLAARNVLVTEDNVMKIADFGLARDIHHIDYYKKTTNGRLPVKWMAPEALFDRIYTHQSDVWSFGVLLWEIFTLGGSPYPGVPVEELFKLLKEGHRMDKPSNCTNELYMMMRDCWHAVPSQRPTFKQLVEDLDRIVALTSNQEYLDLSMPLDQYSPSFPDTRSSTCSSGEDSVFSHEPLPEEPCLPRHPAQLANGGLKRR
method: FGFR-1 inhibitory activity (FGFR-1 ELISA Kit, MDA-MB-231 cell lysates)
pIC50: −log10 of the molar value.
Documented pIC50 across a set of compounds

compound-structure	pIC50
CCOC(=O)c1sc2ncnc(Nc3ccc(S(=O)(=O)Nc4ncccn4)cc3)c2c1C	3.54
CCOC(=O)c1sc2ncnc(Nc3ccc(S(=O)(=O)Nc4cc(C)on4)cc3)c2c1C	3.77
O=S(=O)(Nc1ncccn1)c1ccc(Nc2ncnc3sc4c(c23)CCCC4)cc1	3.92
N=C(N)NS(=O)(=O)c1ccc(Nc2ncnc3sc4c(c23)CCCC4)cc1	3.88
CCOC(=O)c1sc2ncnc(Cl)c2c1C	3.75
Cc1cc(NS(=O)(=O)c2ccc(Nc3ncnc4sc5c(c34)CCCC5)cc2)no1	3.80
CCOC(=O)c1sc2ncnc(Nc3ccc(S(=O)(=O)NC(=N)N)cc3)c2c1C	3.49
